Test system: Escherichia coli
assay.summary: Antimicrobial activity against Escherichia coli by agar diffusion method
Format: functional
endpoint.label: inhibition zone (IZ) (mm)

{"columns": ["compound", "measurement.target", "endpoint.label", "endpoint.value"],
 "data": [
  ["COc1cc2c(c(O)c1OC)C(=O)O[C@@H]1C[C@H](C[C@@H](C)O)O[C@H]21", "Escherichia coli", "inhibition zone (IZ)", 0],
  ["CCC[C@@H](O)C[C@H]1OC(=O)c2c(cc(OC)c(OC)c2O)[C@H]1O", "Escherichia coli", "inhibition zone (IZ)", 10],
  ["CN(C)[C@@H]1C(O)=C(C(N)=O)C(=O)[C@@]2(O)C(O)=C3C(=O)c4c(O)cccc4[C@@](C)(O)[C@H]3C[C@@H]12", "Escherichia coli", "inhibition zone (IZ)", 18],
  ["COc1cc2c(c(O)c1OC)C(=O)O[C@@H]1C[C@H](C[C@H](C)O)O[C@H]21", "Escherichia coli", "inhibition zone (IZ)", 8],
  ["CCC[C@H]1C[C@H]2OC(=O)c3c(cc(OC)c(OC)c3O)[C@H]2O1", "Escherichia coli", "inhibition zone (IZ)", 10],
  ["C[C@@H]1C[C@@H]([C@H](O)CC2CC(=O)NC(=O)C2)C(=O)[C@@H](C)C1 [CYCLOHEXIMIDE]", "Escherichia coli", "inhibition zone (IZ)", 0]
]}

---

System: Priestia megaterium
assay.summary: Antimicrobial activity against Bacillus megaterium by agar diffusion method
Type: functional
Parameter inhibition zone (IZ): see the listing below.

{"columns": ["molecule", "inhibition zone (IZ)"],
 "data": [
  ["C[C@@H]1C[C@@H]([C@H](O)CC2CC(=O)NC(=O)C2)C(=O)[C@@H](C)C1 [CYCLOHEXIMIDE]", "0 mm"],
  ["CN(C)[C@@H]1C(O)=C(C(N)=O)C(=O)[C@@]2(O)C(O)=C3C(=O)c4c(O)cccc4[C@@](C)(O)[C@H]3C[C@@H]12", "18 mm"],
  ["COc1cc2c(c(O)c1OC)C(=O)O[C@@H]1C[C@H](C[C@H](C)O)O[C@H]21", "6 mm"],
  ["CCC[C@H]1C[C@H]2OC(=O)c3c(cc(OC)c(OC)c3O)[C@H]2O1", "6 mm"],
  ["COc1cc2c(c(O)c1OC)C(=O)O[C@@H]1C[C@H](C[C@@H](C)O)O[C@H]21", "0 mm"],
  ["CCC[C@@H](O)C[C@H]1OC(=O)c2c(cc(OC)c(OC)c2O)[C@H]1O", "7 mm"]
]}
